Test system: HepG2
test.protocol: cytotoxicity call (relative viability < 0.9)
condition.parameters: 10 µM
Out of some 39,000 compounds screened, about 3,300 (8.5%) were called active. For the sample, actives were picked, then their nearest neighbours and some compounds at random.
Outcomes: True (active), False (inactive)

C=CCOC(=O)[C@@H]1[C@H]2C(=O)O[C@H](c3ccccc3)[C@H](c3ccccc3)N2[C@H](c2ccc(OCCOC(=O)[C@@H]3C[C@@H]4C(=O)NCC(=O)N4[C@@H]3c3cccc(OCCO)c3)cc2)[C@@]12C(=O)Nc1ccccc12: False
Cc1ccc(S(=O)(=O)Nc2cccc3c2O[C@@H](CN(C)S(=O)(=O)c2ccc(F)cc2)[C@@H](C)CN([C@H](C)CO)C3=O)cc1: False
CC(C)NC(=O)Nc1ccc2c(c1)C(=O)N([C@@H](C)CO)C[C@@H](C)[C@@H](CN(C)C(=O)Nc1ccccc1)OCCCC[C@H](C)O2: False
Cc1ccc(S(=O)(=O)N2C[C@H](O)COC[C@H]3O[C@H](CC(=O)NCCCN(C)C)CC[C@@H]32)cc1: False
COc1ccc(NC(=O)Nc2ccc3c(c2)C(=O)N([C@H](C)CO)C[C@H](C)[C@H](CN(C)Cc2ccccc2)OCCCC[C@H](C)O3)cc1: True
COc1ccc(CN(C)C[C@H]2OCCCC[C@@H](C)Oc3ccc(NS(=O)(=O)c4ccc(Cl)cc4)cc3C(=O)N([C@H](C)CO)C[C@@H]2C)cc1: False
Cc1noc(C)c1S(=O)(=O)N(C)C[C@@H]1Oc2ccc(NC(=O)Nc3ccccc3)cc2CC(=O)N([C@@H](C)CO)C[C@H]1C: False
CO[C@@H]1CN(C)C(=O)c2cc(NC(=O)Nc3cccc(Cl)c3)ccc2OC[C@@H](C)N(C(=O)Nc2c(C)noc2C)C[C@@H]1C: False
CC(C)[Si](C#CCCc1ccccc1)(O[C@H](c1ccccc1)c1cn(Cc2ccccc2)nn1)C(C)C: False
CC1OC(OC2C(O)CC(OC3C(O)CC(OC4CCC5(C)C(CCC6C5CCC5(C)C(C7=CC(=O)OC7)CCC65O)C4)OC3C)OC2C)CC(O)C1O (centres undefined): True
CCCN(C)C[C@H]1OCCCC[C@@H](C)Oc2ccc(NC(=O)Cc3ccccc3)cc2C(=O)N([C@H](C)CO)C[C@H]1C: False
CCOc1ccc2nc(S(N)(=O)=O)sc2c1: False
C[C@@H]1CN([C@H](C)CO)C(=O)c2cccc(NC(=O)Nc3ccc(F)cc3)c2O[C@@H]1CN(C)CC1CCCCC1: False
COc1ccc(CN(C)C[C@@H]2OCCCC[C@@H](C)Oc3ccc(NS(=O)(=O)c4ccc(Cl)cc4)cc3C(=O)N([C@H](C)CO)C[C@H]2C)cc1: False
CCOC(=O)c1cccc(N)c1.CS(=O)(=O)O: False
CC(=O)NCCCC[C@@H]1NC(=O)[C@@H]2C[C@H](C(=O)NCCCCN(C)C)[C@H](c3cccc(OCCO)c3)N2C1=O: False
Cc1noc(C)c1S(=O)(=O)Nc1ccc2c(c1)C(=O)N([C@@H](C)CO)C[C@@H](C)[C@H](CN(C)Cc1ccc(C(F)(F)F)cc1)OCCCC[C@@H](C)O2: False
COc1ccc(COC[C@]23NC(=O)N(C(=O)c4ccccc4)[C@H](c4ccccc4O2)[C@H]3CO[Si](C)(C)C(C)(C)C)cc1: False
C[C@@H]1CN([C@@H](C)CO)C(=O)c2cc(NC(=O)CCCCCC(=O)Nc3ccccc3N)ccc2O[C@@H](C)CCCCO[C@@H]1CN(C)S(=O)(=O)c1ccc(Cl)cc1: False
COc1ccc(CN(C)C[C@H]2OCCCC[C@@H](C)Oc3ccc(NS(=O)(=O)c4ccc(Cl)cc4)cc3C(=O)N([C@@H](C)CO)C[C@H]2C)cc1: True
Cc1ccc(S(=O)(=O)N(C)C[C@@H]2Oc3ccc(NS(=O)(=O)c4c(C)noc4C)cc3C(=O)N([C@H](C)CO)C[C@H]2C)cc1: False
C[C@@H]1CCCCO[C@H](CN(C)C(=O)C2CCCCC2)[C@H](C)CN([C@@H](C)CO)C(=O)c2cc(NC(=O)Cc3ccccc3)ccc2O1: False
O=c1ccc2c[nH][nH]c-2c1: False
COc1ccc(CN(C)C[C@H]2OCCCC[C@@H](C)Oc3ccc(NS(=O)(=O)c4ccc(Cl)cc4)cc3C(=O)N([C@@H](C)CO)C[C@@H]2C)cc1: False
COc1ccc(-c2coc3cc(O)ccc3c2=O)cc1: False
C[C@H]1CCCCO[C@H](CN(C)Cc2ccccc2)[C@@H](C)CN([C@@H](C)CO)C(=O)c2cc(NC(=O)Nc3ccccc3)ccc2O1: False
CC(O)C(=O)O.CCOc1ccc2nc3cc(N)ccc3c(N)c2c1: True
COc1ccc(NC(=O)Nc2ccc3c(c2)C(=O)N([C@@H](C)CO)C[C@H](C)[C@@H](CN(C)Cc2ccccc2)OCCCC[C@H](C)O3)cc1: False
Cc1ccccc1NC(=O)CC(C)C: False
